- system.tested: human SGLT2 (Homo sapiens, UniProt P31639)
- Construct: expressed in transfected cells; host or cells: CHO-K1
- Sequence (P31639 1-672): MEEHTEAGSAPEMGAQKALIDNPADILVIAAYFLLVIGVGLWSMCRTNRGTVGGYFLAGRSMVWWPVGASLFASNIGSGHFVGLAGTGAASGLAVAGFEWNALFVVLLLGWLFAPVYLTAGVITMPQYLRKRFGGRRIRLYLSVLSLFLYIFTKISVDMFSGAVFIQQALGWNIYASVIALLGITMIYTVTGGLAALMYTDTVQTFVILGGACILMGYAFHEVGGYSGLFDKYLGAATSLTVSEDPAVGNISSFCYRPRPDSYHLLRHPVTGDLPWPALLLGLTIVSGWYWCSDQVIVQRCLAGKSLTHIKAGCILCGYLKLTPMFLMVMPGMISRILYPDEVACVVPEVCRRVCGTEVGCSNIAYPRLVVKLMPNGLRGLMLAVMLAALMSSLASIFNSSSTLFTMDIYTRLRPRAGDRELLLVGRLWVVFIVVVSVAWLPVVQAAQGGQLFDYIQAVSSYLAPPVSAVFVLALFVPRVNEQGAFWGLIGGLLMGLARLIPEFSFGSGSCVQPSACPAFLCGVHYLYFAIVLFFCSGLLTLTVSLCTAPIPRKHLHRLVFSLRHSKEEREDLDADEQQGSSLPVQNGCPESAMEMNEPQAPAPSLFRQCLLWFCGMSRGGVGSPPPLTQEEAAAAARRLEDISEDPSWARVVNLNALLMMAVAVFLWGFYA
- experiment.description: Inhibitory activity against methyl-α-D-glucopyranoside uptake, CHO cells stably expressing human SGLT2
- Assay type: cell-based
- run.parameters: matches hSGLT1 IC50 / hSGLT2 IC50 (formula not stated)
property.label: hSGLT2 selectivity

Reference set, count: 2
compound: CCOc1ccc(Cc2cc3c(cc2Cl)CO[C@]32O[C@H](CO)[C@@H](O)[C@H](O)[C@H]2O)cc1
system.tested: human SGLT2 (Homo sapiens, UniProt P31639)
hSGLT2 selectivity: 283

compound: OC[C@H]1O[C@]2(OCc3cc(Cl)c(Cc4ccc5ccccc5c4)cc32)[C@H](O)[C@@H](O)[C@@H]1O
system.tested: human SGLT2 (Homo sapiens, UniProt P31639)
hSGLT2 selectivity: 224

[I] OC[C@H]1O[C@]2(OCc3cc(Cl)c(Cc4ccc(CCF)cc4)cc32)[C@H](O)[C@@H](O)[C@@H]1O
[II] CCc1ccc(Cc2cc3c(cc2C)CO[C@]32O[C@H](CO)[C@@H](O)[C@H](O)[C@H]2O)cc1 [Comparative Compound 1, reference compound]
*Q* Please indicate which entry, I or II , has the lower recorded hSGLT2 selectivity value. Output the label that corresponds to your choice.
*A* II
(II: 83, I: 323)

[1] Cc1cc2c(cc1Cc1ccc(C(C)C)cc1)[C@]1(OC2)O[C@H](CO)[C@@H](O)[C@H](O)[C@H]1O
[2] CCCc1ccc(Cc2cc3c(cc2Cl)CO[C@]32O[C@H](CO)[C@@H](O)[C@H](O)[C@H]2O)cc1
*Q* Sort 1 and 2 by hSGLT2 selectivity descending and give the first. Output the label that corresponds to your choice.
*A* 2
(2: 590, 1: 341)

[I] CC(C)c1ccc(Cc2cc3c(cc2Cl)CO[C@]32O[C@H](CO)[C@@H](O)[C@H](O)[C@H]2O)cc1
[II] CCc1ccc(Cc2cc3c(cc2Cl)CO[C@]32O[C@H](CO)[C@@H](O)[C@H](O)[C@H]2O)cc1
*Q* Please indicate which entry, I or II , has the lower recorded hSGLT2 selectivity value. Output the label that corresponds to your choice.
*A* II

The reported measurements were obtained from patent US20110275703A1.
